Origin of measurements: patent US5574015A

system: HSV-2; assay: Inhibition of Herpes Simplex Virus (HSV-2) replication in cell culture; assay type: cell-based, HSV-2 strain HG-52; conditions: Human alphaherpesvirus 2, Table III; acyclovir + 10 μM of peptide (title peptide of example 6)
readout-name: EC50 (nM)
Number only, in nM; omit the unit.

In plain terms, Nc1nc2c(ncn2COCCO)c(=O)[nH]1 [acyclovir, reference compound] has a documented EC50 of 420

---

test system: HSV-2; experiment: Inhibition of Herpes Simplex Virus (HSV-2) replication in cell culture; assay type: cell-based, HSV-2 strain HG-52; settings: Human alphaherpesvirus 2, Table III; acyclovir + 2 μM of peptide (title peptide of example 6)
readout-name: EC50 (nM)
Number only, in nM; omit the unit.

In plain terms, Nc1nc2c(ncn2COCCO)c(=O)[nH]1 [acyclovir, reference compound] has a documented EC50 of 1400

---

test system: HSV-2; assay: Inhibition of Herpes Simplex Virus (HSV-2) replication in cell culture; assay type: cell-based, HSV-2 strain HG-52; conditions: Human alphaherpesvirus 2, Table III; acyclovir + 6 μM of peptide (title peptide of example 6)
readout-name: pEC50
FYI, pEC50 means -log10 of a concentration in mol per litre.

In plain terms, Nc1nc2c(ncn2COCCO)c(=O)[nH]1 [acyclovir, reference compound] has a documented pEC50 of 6.05
